Experiment: chemical genetic growth profiling, strain panel (AID 1159580);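 note: tested at 20 µM; growth read once vehicle control cultures reached saturation at 30 °C; 1 = growth at the plate median or of vehicle wells; lower values mean less growth of the strain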
Settings: S. cerevisiae deletion strains, growth OD, locus YLR342W, strain FKS1, hits give low values
About 2,000 (36%) of roughly 5,500 compounds were called active. Inconclusive results (about 18%) are left out. Some of the results follow.
Each record here notes measured normalized growth.
measure name: normalized growth

INSERT INTO measurements (molecule, measure_name, reported_result) VALUES
  ('COc1ccccc1OCC(O)CN1CCN(CC(=O)Nc2c(C)cccc2C)CC1 (centres undefined)', 'normalized growth', 1.02),
  ('O=C(O)c1ccc2c(c1)OCO2', 'normalized growth', 1.05),
  ('S=c1[nH]c2ccccc2s1', 'normalized growth', 0.972),
  ('COc1ccc(/C=C/C(=O)c2ccc(O)cc2O)cc1', 'normalized growth', 0.313);

----------
Test: chemical genetic growth profiling, strain panel (AID 1159580)
Conditions: S. cerevisiae deletion strains, growth OD, locus YOR080W, strain dia2
Screen size: about 5,500 compounds; about 2,000 (36%) were called active. Another 18% or so got no clear call; they are omitted. No stated cut-off is given here; in the data, active means normalized growth mostly below about 0.91 (no sharp cut-off); inconclusive means no clear call, values can overlap the other calls; inactive means mostly above about 0.92. Some of the results follow.
Labels: active, inactive

INSERT INTO assay_data (molecule, group) VALUES
  ('O=C(O)c1ccc2c(c1)OCO2', 'inactive'),
  ('CC[C@@]1(C2O[C@@H](C3O[C@@](O)(CC)[C@H](C)C[C@@H]3C)C[C@@H]2C)CC[C@H]([C@]2(C)CCC3(C[C@H](O)[C@@H](C)[C@@H]([C@H](C)[C@@H](OC)[C@H](C)C(=O)O)O3)O2)O1 (some centres not stated)', 'inactive'),
  ('COc1cc(/C=C/C(=O)O)ccc1O', 'inactive'),
  ('O=C1O[C@@H](CO)[C@H](O)[C@@H](O)[C@@H]1O', 'inactive'),
  ('CC(=O)O[C@H]1CC[C@@]2(C)C(=CCC3C2CC[C@]2(C)C(=O)CCC32)C1 (some centres not stated)', 'inactive'),
  ('CC[C@]12CCCN3CCc4c(n(c5ccccc45)[C@](O)(C(=O)OC)C1)[C@@H]32', 'inactive'),
  ('C=CC1=C(C)/C(=C/c2[nH]c(Cc3[nH]c(/C=C4\NC(=O)C(C)=C4C=C)c(C)c3CCC(=O)O)c(CCC(=O)O)c2C)NC1=O', 'inactive'),
  ('COc1ccc(/C=C/C(=O)O)cc1OC', 'inactive'),
  ('c1ccc(-c2ccc(C(c3ccccc3)n3ccnc3)cc2)cc1 (configuration not stated)', 'active'),
  ('COc1cc(/C=C/C(=O)O)cc(OC)c1OC', 'inactive'),
  ('c1cc2c(cc1[C@H]1OC[C@H]3[C@@H]1CO[C@H]3c1ccc3c(c1)OCO3)OCO2', 'active'),
  ('CC1(C)CC2C1CCC1(C)OC2(C)CCC1O (configuration not stated)', 'inactive');

----------
Assay: chemical genetic growth profiling, strain panel (AID 1159580);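 note: tested at 20 µM; growth read once vehicle control cultures reached saturation at 30 °C; 1 = growth at the plate median or of vehicle wells; lower values mean less growth of the strain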
Conditions: S. cerevisiae deletion strains, growth OD, locus YGR078C, strain PAC10
The campaign covered roughly 5,500 compounds. About 2,000 (36%) were called active. About 18% were inconclusive and are not listed. No stated cut-off is given here; in the data, active means normalized growth mostly below about 0.91 (no sharp cut-off); inconclusive means no clear call, values can overlap the other calls; inactive means mostly above about 0.92. The list shows a part of the results.
Possible outcomes: active, inactive

INSERT INTO measurements (smiles, group) VALUES
  ('NC(=O)CI', 'active'),
  ('Cc1ccc(CS/C(N)=N\N)cc1', 'inactive'),
  ('S=c1[nH]c2ccccc2s1', 'inactive'),
  ('Cc1ccc(CSC(=N)N)cc1', 'inactive'),
  ('COc1c(C(=O)O)ccc2c1CCC(C)(C)O2', 'inactive'),
  ('COC(=O)[C@@H](N)CCCN=C(N)N[N+](=O)[O-]', 'inactive');

----------
Below, each entry is listed alongside its reported normalized growth.
Experiment: chemical genetic growth profiling, strain panel (AID 1159580);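 note: tested at 20 µM; growth read once vehicle control cultures reached saturation at 30 °C; 1 = growth at the plate median or of vehicle wells; lower values mean less growth of the strain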
Details: S. cerevisiae strains, growth OD, strain wild type, hits give low values
The campaign covered roughly 5,500 compounds. About 2,000 (36%) were called active. Not shown: some 18% with an inconclusive outcome. The list shows a part of the results.
measure name: normalized growth

INSERT INTO results (compound, reported_result) VALUES
  ('O=C1CN(/N=C\c2ccc([N+](=O)[O-])o2)C(=O)N1', 0.997),
  ('C=CCN1CC[C@]23c4c5ccc(O)c4OC2C(=O)CC[C@@]3(O)[C@H]1C5 (some centres undefined)', 1.01),
  ('c1ccc2[nH]c(-c3cscn3)nc2c1', 0.995),
  ('CN(Cc1cc(Br)cc(Br)c1N)C1CCCCC1', 1.01),
  ('S=c1[nH]c2ccccc2s1', 0.996),
  ('O=C1N=C(O)CN1/N=C\c1ccc(-c2ccc([N+](=O)[O-])cc2)o1', 1.02),
  ('CCOP(=S)(OCC)SCSCC', 1.01),
  ('NC(=O)c1cc[n+](CC2=C(C(=O)O)N3C(=O)C(NC(=O)C(c4ccccc4)S(=O)(=O)[O-])C3SC2)cc1 (centres undefined)', 0.995),
  ('Nc1c(Br)cc(Br)cc1CNC1CCC(O)CC1 (centres undefined)', 1.01),
  ('CCOP(=S)(OCC)SCSP(=S)(OCC)OCC', 0.982),
  ('COC(=O)c1ccc(C(=O)OC)nc1', 0.989),
  ('CC12CCCC(O)(C1)C1CC(C)(C)C1CC2 (centres undefined)', 1.01),
  ('O=c1ccn([C@@H]2O[C@H](COP(=O)(O)OP(=O)(O)OP(=O)(O)O)[C@@H](O)[C@H]2O)c(=O)[nH]1', 1.01),
  ('CC/C(=N/Oc1ccc(C(F)(F)F)cn1)c1ccc(-c2ccccc2F)cc1', 1.02),
  ('CN1CCc2cccc3c2C1Cc1ccc(O)c(O)c1-3 (centres undefined)', 1.01),
  ('O=c1cccc2n1C[C@H]1CNCC2C1', 1.01),
  ('COC(=O)[C@H]1[C@H]2C[C@@H]3c4[nH]c5cc(OC)ccc5c4CCN3C[C@H]2C[C@@H](OC(=O)c2cc(OC)c(OC)c(OC)c2)[C@@H]1OC', 0.986),
  ('CC(=O)C1=C(O)C2C3c4c[nH]c5cccc(c45)CC3C(C)(C)N2C1=O (centres undefined)', 0.971),
  ('COc1cc(/C=C/C(=O)O)cc(OC)c1OC', 1.01);

----------
Test: chemical genetic growth profiling, strain panel (AID 1159580);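 note: tested at 20 µM; growth read once vehicle control cultures reached saturation at 30 °C; 1 = growth at the plate median or of vehicle wells; lower values mean less growth of the strain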
Conditions: S. cerevisiae deletion strains, growth OD, locus YBL061C, strain skt5, hits give low values
Screen size: about 5,500 compounds; about 2,000 (36%) were called active. Another 18% or so got no clear call; they are omitted. Some of the results follow.
measure name: normalized growth

INSERT INTO assay_data (compound, measure_name, reported_result) VALUES
  ('NC(=O)c1cc[n+](CC2=C(C(=O)O)N3C(=O)C(NC(=O)C(c4ccccc4)S(=O)(=O)[O-])C3SC2)cc1 (stereo not drawn)', 'normalized growth', 0.994),
  ('C[C@](N)(Cc1ccc(O)c(O)c1)C(=O)O', 'normalized growth', 0.971),
  ('OC/C=C/c1ccc(O)c(O)c1', 'normalized growth', 0.996),
  ('CCOc1ccc2c(c1)C(C)=CC(C)(C)N2', 'normalized growth', 0.988),
  ('CN(Cc1cc(Br)cc(Br)c1N)C1CCCCC1', 'normalized growth', 1.03),
  ('O=C(O)CCC(=O)c1ccc(-c2ccccc2)cc1', 'normalized growth', 0.989),
  ('Nc1ccc(S(=O)(=O)Nc2nccs2)cc1', 'normalized growth', 1.01),
  ('COc1ccc(/C=C/C(=O)c2cc(O)ccc2O)cc1', 'normalized growth', 0.38),
  ('COC(=O)[C@H]1[C@H]2C[C@@H]3c4[nH]c5cc(OC)ccc5c4CCN3C[C@H]2C[C@@H](OC(=O)c2cc(OC)c(OC)c(OC)c2)[C@@H]1OC', 'normalized growth', 1),
  ('O=C(O)P(=O)(O)O', 'normalized growth', 0.984),
  ('CCOC(=O)C(C)(N)Cc1ccc(O)c(O)c1 (stereo not drawn)', 'normalized growth', 0.965),
  ('C=CC1=C(C)/C(=C/c2[nH]c(Cc3[nH]c(/C=C4\NC(=O)C(C)=C4C=C)c(C)c3CCC(=O)O)c(CCC(=O)O)c2C)NC1=O', 'normalized growth', 0.993),
  ('COc1cc(/C=C/C(=O)O)cc(OC)c1OC', 'normalized growth', 0.993),
  ('CN(C)CCCO[C@H]1[C@@H](C(O)CO)OC2OC(C)(C)O[C@@H]21 (stereo partly drawn)', 'normalized growth', 0.98),
  ('COc1ccc(C=CC(=O)c2ccc(O)cc2O)cc1OC', 'normalized growth', 0.811),
  ('CCCN(CCC)C(=O)C(CCC(=O)O)NC(=O)c1ccccc1 (stereo not drawn)', 'normalized growth', 0.983),
  ('c1ccc2[nH]c(-c3cscn3)nc2c1', 'normalized growth', 1.01),
  ('COc1ccccc1OCC(O)CN1CCN(CC(=O)Nc2c(C)cccc2C)CC1 (stereo not drawn)', 'normalized growth', 1.02);
